- Tested on: LOX IMVI
- test: NCI tumour cell line growth inhibition, 48 h
The source made the active and inactive calls. Rule as the data show it: active = GI50 up to about 1.1 µM and inactive = higher.
propertyName: GI50

// known answers, use as guide
1. OCC(O)C1OC2CC1Nc1ccccc1N2 (stereo not given) ... > 100 µM (inactive)
2. CC(=O)OC1CC[C@@]2(C)C(CC[C@]3(C)C2CC=C2[C@@H]4C(C)[C@H](C)CCC4(C)CCC23C)[C@@]1(C)C(=O)O (stereo not given in full) ... 20.9 µM (inactive)
3. NC1=C(Cl)C(=O)c2ccccc2C1=O ... 2.28 µM (inactive)
4. O=[N+]([O-])c1cc(C(F)(F)F)cc2n[se]nc12 ... 5.53 µM (inactive)
5. [N-]=[N+]=Nc1ccc2c(c1)Sc1ccccc1N2CCCCCl ... 36.8 µM (inactive)
6. O=C1CC[C@@H](S(=O)(=O)c2ccccc2)[C@@H](/C=C/c2ccccc2)O1 ... > 100 µM (inactive)

Please state, for each entry, its recorded GI50.
1. O=C1C(CN2CCOCC2)CCCC1CN1CCOCC1 (stereo not given)
2. C=C1CN2CC(=C)CN(C1)CS(=O)(=O)N1CC(=C)CN(CC(=C)C1)S(=O)(=O)N1CC(=C)CN(CC(=C)C1)S(=O)(=O)C2
3. C=C1CC(C)(c2cccc(Nc3nc4ccccc4c4occc34)c2)OC1=O (stereo not given)

Result block:
["3.28 µM (inactive)", "> 100 µM (inactive)", "1.99 µM (inactive)"]

Please state, for each entry, its recorded GI50.
1. CC1=C2C(=O)[C@H]3[C@@H](CC=C4C[C@@H](O)CC[C@@]43C)[C@@H]2CC[C@]12O[C@@H]1C[C@H](C)CN[C@H]1[C@H]2C
2. CCOc1ccc(-n2c(=O)c3nn4c(=O)n(-c5ccc(OCC)cc5)c(=O)c4nn3c2=O)cc1
3. COc1cc(C=C2C(=O)NC(=O)NC2=O)cc(OC)c1OC
4. COc1cc(C2SCC(=O)N2c2ccc(Oc3ccc(Cl)cc3)c(Cl)c2)cc(OC)c1OC (stereo not given)

Result block:
> 41.1 µM (inactive)
> 100 µM (inactive)
> 100 µM (inactive)
17.9 µM (inactive)

Please state, for each entry, its recorded GI50.
1. COC(=O)C1=C(C)C=C(N2CCOCC2)C(C(=O)OC)C1c1ccccc1 (stereo not given)
2. COc1ncnc2c1cnn2Cc1cn(CCCCO)nn1
3. C=C1C(=O)OC2/C=C(\CO)CC/C=C(\CO)CC(OC(=O)C(C)C)C12 (stereo not given)
4. CC/C=C/c1cc2cc[nH]c2c2c1C(C)C[C@@H]2C (stereo not given in full)
5. CC(C)(C)CC(C)(C)NCC(O)COc1ccc(C(C)(C)c2ccc(OCC(O)CNC(C)(C)CC(C)(C)C)cc2)cc1 (stereo not given)

Result block:
1. > 10 µM (inactive)
2. > 100 µM (inactive)
3. 13.5 µM (inactive)
4. 17.1 µM (inactive)
5. 0.429 µM (active)

Please state, for each entry, its recorded GI50.
1. O=C(CC(c1ccccc1)N1CCCCC1)c1ccccc1 (stereo not given)
2. CC(C)(C)c1cc(OCc2nnc3sc(S)nn23)c(Cl)cc1OCc1nnc2sc(S)nn12

Result block:
["5.66 µM (inactive)", "18.4 µM (inactive)"]

Reference source: ChEMBL document CHEMBL1201862
